Entries and their cell viability
System: H9c2 cardiomyocytes
Assay: Cell viability assay (MTT)
Format: cell-based, rat
Settings: H9c2, 48 h, 10.0 µM

Answered examples (2):
[[record]]
compound = "COC1=C(c2c[nH]c3ccccc23)C(=O)C(CC=C(C)C)=C(c2c[nH]c3ccccc23)C1=O"
assay_system = "H9c2 cardiomyocytes"
reading = "88.6 ± 2.3 % of control"

[[record]]
compound = "COc1c(OC)c(-c2c[nH]c3ccccc23)c(OC)c(OC)c1-c1c[nH]c2ccccc12"
assay_system = "H9c2 cardiomyocytes"
reading = "76.3 ± 3.9 % of control"


Pending compound:
Form field: cell viability recorded for Cc1c(C)c(O)c2c(c1C)C(C)(O)OC2=O (stereo not drawn) [Compound 3, sclerolide] with H9c2 cardiomyocytes (enter value) 102.7 ± 6.7 % of control

* * *

Each entry below lists one item and its recorded IC50 at 24 h value.
Assay: Cell viability assay (MTT)
Assay type: cell-based, human
Settings: human, MDA-MB-231 breast cancer cells; MDA-MB-231, 24 h; read-out: Cytotoxicity IC50

In the examples that follow, each entry is paired with its recorded IC50 at 24 h.
[[record]]
molecule = "Cc1c(C)c(O)c2c(c1C)C(C)C(=O)OC2=O (stereo not drawn)"
assay_readout = "IC50 at 24 h"
reading = "> 100 µM"

[[record]]
molecule = "COc1c(OC)c(-c2c[nH]c3ccc(O)cc23)c(OC)c(OC)c1-c1c[nH]c2ccccc12"
assay_readout = "IC50 at 24 h"
reading = "> 100 µM"


Would you kindly share the measured IC50 at 24 h for COc1c(OC)c(-c2c[nH]c3ccccc23)c(OC)c(OC)c1-c1c[nH]c2ccccc12 ? > 100 µM
